Taken from paper PMC12631721.

# Test system: SARS‐CoV‐2
# test_name: microbe, parasite or virus in culture
# Assay type: cell-based
# condition_description: Severe acute respiratory syndrome coronavirus 2, Calu-3, read-out: EC50 (CPE inhibition)
value_kind: EC50 (nM)

- test_smiles: "N#C[C@@]1(c2ccc3c(N)ncnn23)O[C@H](CO)[C@@H](O)[C@H]1O"
  experimental_target: "SARS‐CoV‐2"
  value_kind: "EC50"
  endpoint_value: 850

###

This listing pairs compounds with measured pEC50.
# Test system: SARS‐CoV‐2
# test_name: microbe, parasite or virus in culture
# Format: cell-based
# condition_description: Severe acute respiratory syndrome coronavirus 2; Calu‐3 cells, PHE MOI = 0.1, 72 hpi, 7 serial 1 in 2 dilutions from 20 µM; read-out: EC50 (CPE inhibition)
pEC50: −log10 of the molar value.
value_kind: pEC50

- compound: "CN1CCC(=C2c3ccccc3CCc3cccnc32)CC1 [Azatadine‐Dimaleate]"
  endpoint_value: 5.40
- compound: "CCC(CC)COC(=O)[C@H](C)N[P@](=O)(OC[C@H]1O[C@@](C#N)(c2ccc3c(N)ncnn23)[C@H](O)[C@@H]1O)Oc1ccccc1"
  endpoint_value: 6.22

###

# Test system: SARS‐CoV‐2
# test_name: CPE-based high-throughput screen (CellTox Green) in Vero cells
# Assay type: cell-based
# condition_description: Severe acute respiratory syndrome coronavirus 2; Vero cells, 5 µM, drug 24 h before infection, MOI = 0.1, 72 hpi
Listing: inhibition at 5 µM of selected compounds

- compound: "CC(C)n1nc(-c2ccc3oc(N)nc3c2)c2c(N)ncnc21"
  experimental_target: "SARS‐CoV‐2"
  inhibition at 5 µM: "80 to 90%"
- compound: "CN1CCC(=C2c3ccccc3CCc3cccnc32)CC1 [Azatadine‐Dimaleate]"
  experimental_target: "SARS‐CoV‐2"
  inhibition at 5 µM: "88.5%"
- compound: "CCN(CC)CCCC(C)Nc1ccnc2cc(Cl)ccc12 (centres unmarked)"
  experimental_target: "SARS‐CoV‐2"
  inhibition at 5 µM: "100%"
- compound: "CCN(CCO)CCCC(C)Nc1ccnc2cc(Cl)ccc12 (centres unmarked) [hydroxychloroquine]"
  experimental_target: "SARS‐CoV‐2"
  inhibition at 5 µM: "100%"
- compound: "CC(C)(C)[C@@H]1NC(=O)O[C@@H]2CCC[C@H]2OC/C=C/C(F)(F)c2nc3ccccc3nc2O[C@@H]2C[C@@H](C(=O)N[C@]3(C(=O)NS(=O)(=O)C4(C)CC4)C[C@H]3C(F)F)N(C2)C1=O"
  experimental_target: "SARS‐CoV‐2"
  inhibition at 5 µM: "80 to 90%"
